# test: Single ascending dose plasma pharmacokinetics in healthy volunteers
# Format: in vivo
# conditions-used: human, oral, single dose 60 mg capsules, fasted, mean ± SD
measured-parameter: AUC(0-inf) (ng·h/mL)

1. Cl.N#Cc1cccc(-c2ccc3ncc(-c4cc(F)cc(F)c4)c(N4CCC(N)CC4)c3c2)c1O	2300

* * *

# test: Single ascending dose plasma pharmacokinetics in healthy volunteers
# Type: in vivo
# conditions-used: human, single dose 20 mg oral solution, fasted, mean ± SD, read-out: Tmax
measured-parameter: Tmax (h)

1) Cl.N#Cc1cccc(-c2ccc3ncc(-c4cc(F)cc(F)c4)c(N4CCC(N)CC4)c3c2)c1O [paltusotine]	1.9

* * *

# test: Multiple ascending dose plasma pharmacokinetics in healthy volunteers
# Assay type: in vivo, human
# conditions-used: human, plasma, oral, 5 mg, 5 mg capsules once daily, Day 7; mean ± SD
measured-parameter: Tmax (h)

1. Cl.N#Cc1cccc(-c2ccc3ncc(-c4cc(F)cc(F)c4)c(N4CCC(N)CC4)c3c2)c1O [paltusotine]	2.1

* * *

# test: Multiple ascending dose plasma pharmacokinetics in healthy volunteers
# Type: in vivo, human
# conditions-used: human, plasma, oral, 10 mg, 10 mg capsules once daily, Day 1; mean ± SD
measured-parameter: Tmax (h)

1) Cl.N#Cc1cccc(-c2ccc3ncc(-c4cc(F)cc(F)c4)c(N4CCC(N)CC4)c3c2)c1O	1.8

* * *

# test: Single ascending dose plasma pharmacokinetics in healthy volunteers
# Assay type: in vivo
# conditions-used: human, oral, single dose 40 mg capsules, fasted, mean ± SD, read-out: Tmax
measured-parameter: Tmax (h)

1) Cl.N#Cc1cccc(-c2ccc3ncc(-c4cc(F)cc(F)c4)c(N4CCC(N)CC4)c3c2)c1O [paltusotine]	3.4

* * *

# test: Single ascending dose plasma pharmacokinetics in healthy volunteers
# Type: in vivo
# conditions-used: human, single dose 1.25 mg oral solution, fasted, mean ± SD, read-out: Tmax
# Experimental: In the single-dose phase, participants were randomized 6:2 to paltusotine (1.25, 2.5, 5, 10, 20, 40, and 60 mg) or placebo in 7 cohorts (S1 to S7). […] Plasma pharmacokinetic sample analysis for paltusotine was determined using validated procedures by CPR Pharma Services (Thebarton, Australia). Briefly, plasma paltusotine concentrations were determined by high-pressure liquid chromatography (HPLC) coupled with tandem mass spectrometry detection (MS/MS). […]
measured-parameter: Tmax (h)

1) Cl.N#Cc1cccc(-c2ccc3ncc(-c4cc(F)cc(F)c4)c(N4CCC(N)CC4)c3c2)c1O	1.3

* * *

# test: Single ascending dose plasma pharmacokinetics in healthy volunteers
# Format: in vivo
# conditions-used: human, single dose 20 mg oral solution, fasted, mean ± SD, read-out: t1/2 (converted)
measured-parameter: half-life

1) Cl.N#Cc1cccc(-c2ccc3ncc(-c4cc(F)cc(F)c4)c(N4CCC(N)CC4)c3c2)c1O	29 h

* * *

# test: Single ascending dose plasma pharmacokinetics in healthy volunteers
# Format: in vivo
# conditions-used: human, single dose 10 mg oral solution, fasted, mean ± SD
measured-parameter: Cmax (ng/mL)

1) Cl.N#Cc1cccc(-c2ccc3ncc(-c4cc(F)cc(F)c4)c(N4CCC(N)CC4)c3c2)c1O [paltusotine]	95.2

* * *

# test: Single ascending dose plasma pharmacokinetics in healthy volunteers
# Type: in vivo
# conditions-used: human, single dose 1.25 mg oral solution, fasted, mean ± SD
# Procedure: In the single-dose phase, participants were randomized 6:2 to paltusotine (1.25, 2.5, 5, 10, 20, 40, and 60 mg) or placebo in 7 cohorts (S1 to S7). […] Plasma pharmacokinetic sample analysis for paltusotine was determined using validated procedures by CPR Pharma Services (Thebarton, Australia). Briefly, plasma paltusotine concentrations were determined by high-pressure liquid chromatography (HPLC) coupled with tandem mass spectrometry detection (MS/MS). […]
measured-parameter: Cmax (ng/mL)

1) Cl.N#Cc1cccc(-c2ccc3ncc(-c4cc(F)cc(F)c4)c(N4CCC(N)CC4)c3c2)c1O	9.81
